# Test system: breast line MDA468
# methodSummary: In vitro cell culture growth assay (MTS), MDA468
# Format: cell-based, human
# conditionDescription: Homo sapiens, 72 h, MDA468 cells, three days after drug treatment
assayMetric: IC50 (nM)
Supply the numeric figure in nM, leaving out any unit text.

{"compound": "Clc1ccc(-c2nc(N3CCOCC3)c3cnn(C4CCN(Cc5ccccc5)CC4)c3n2)cn1 [Compound 156]", "IC50 (nM)": 35000}
{"compound": "CNC(=O)Nc1ccc(-c2nc(N3CCOCC3)c3cnn(C4CCN(C(=O)OC)CC4)c3n2)cc1 [Example 476]", "IC50 (nM)": 100}
{"compound": "CNC(=O)Nc1ccc(-c2nc(N3CCOCC3)c3cnn(C4CCC(=O)CC4)c3n2)cc1 [Compound 567]", "IC50 (nM)": 180}

Give measured IC50 for COC(=O)N1CCC(n2ncc3c(N4CCOCC4)nc(-c4ccc(N)cc4)nc32)CC1 [Compound 741] (breast line MDA468).
12000

Give measured IC50 for CC(C)OC(=O)N1CCC(n2ncc3c(N4CCOCC4)nc(-c4ccc(N)cc4)nc32)CC1 [Compound 830] (breast line MDA468).
16000

Give measured IC50 for CNCCNC(=O)Nc1ccc(-c2nc(N3CCOCC3)c3cnn(C4CCN(C(=O)c5ccccc5)CC4)c3n2)cc1 [Example 386] (breast line MDA468).
1400

Give measured IC50 for CNC(=O)Nc1ccc(-c2nc(N3CCOCC3)c3cnn(C4CCN(Cc5ccccc5C)CC4)c3n2)cc1 [Example 429] (breast line MDA468).
200

Give measured IC50 for CNC(=O)Nc1ccc(-c2nc(N3CCOCC3)c3cnn(C4CC[S+]([O-])CC4)c3n2)cc1 (centres unmarked) [Compound 868] (breast line MDA468).
720

----------
# key: entry, value: pIC50
# System: breast line MDA468
# methodSummary: In vitro cell culture growth assay (MTS), MDA468
# Format: cell-based, human
# conditionDescription: Homo sapiens, 72 h, MDA468 cells, three days after drug treatment
Please note pIC50 is a logarithmic value: minus log10 of concentration in mol/L. Answer with that number alone.

# count of solved cases: 3
{"compound": "CNC(=O)Nc1ccc(-c2nc(N3CCOCC3)c3cnn(C4CCOCC4)c3n2)cc1 [Compound 939]", "pIC50": 6.30}
{"compound": "COC(=O)Nc1ccc(-c2nc(N3CCOCC3)c3cnn(C4CCN(C(=O)c5ccc(C#N)cc5)CC4)c3n2)cc1 [Example 447]", "pIC50": 5.92}
{"compound": "CNC(=O)Nc1ccc(-c2nc(N3CCOCC3)c3cnn(C4CCN(C(=O)Nc5cccnc5)CC4)c3n2)cc1 [Example 335]", "pIC50": 5.60}

Continue with the compound presented below.
Answer with reported pIC50 of O=C(NO)Nc1ccc(-c2nc(N3CCOCC3)c3cnn(C4CCN(C(=O)c5cccnc5)CC4)c3n2)cc1 [Example 305]
5.14

----------
# Tested on: breast line MDA468
# methodSummary: In vitro cell culture growth assay (MTS), MDA468
# Assay type: cell-based, human
# conditionDescription: Homo sapiens, 72 h, MDA468 cells, three days after drug treatment
assayMetric: log10 of IC50 (log10 of the value in nM)
The common logarithm of IC50 in nM is what is listed.

{"molecule": "Cc1ccncc1C(=O)N1CCC(n2ncc3c(N4CCOCC4)nc(-c4ccc5[nH]ccc5c4)nc32)CC1 [Example 199]", "readoutValue": 3.26}
{"molecule": "Nc1ncc(-c2nc(N3CCOCC3)c3cnn(C4CCN(Cc5ccccc5)CC4)c3n2)cn1 [Compound 191]", "readoutValue": 2.60}
{"molecule": "CCOC(=O)N1CCC(n2ncc3c(N4CCOCC4)nc(-c4ccc(NC(=O)NCCF)cc4)nc32)CC1 [Compound 819]", "readoutValue": 1.85}
{"molecule": "CN(C)CC(=O)Nc1ccc(-c2nc(N3CCOCC3)c3cn[nH]c3n2)cc1 [Compound 527]", "readoutValue": 4.26}
{"molecule": "COC(=O)Nc1ccc(-c2nc(N3CCOCC3)c3cnn(C4CCN(C(=O)C(F)(F)F)CC4)c3n2)cc1 [Compound 811]", "readoutValue": 3.66}

Answer with reported log10 of IC50 of CC(C)(C)OC(=O)N1CCC(n2ncc3c(N4CCOCC4)nc(-c4ccc(NC(=O)Nc5ccccc5)cc4)nc32)CC1 [Compound 768]
2.85

Answer with reported log10 of IC50 of CNC(=O)Nc1ccc(-c2nc(N3CCOCC3)c3cnn(C4CCN(C(=O)c5ccc(F)cc5)CC4)c3n2)cc1 [Example 361]
2.00

This collection of values is drawn from patent US20080234262A1.
